Field: growth. Provide a value for each of the compounds that follow.
# Tested on: IGROV1 ovarian
# Procedure Summary: NCI-60 one-dose screen, 48 h (100 = growth as untreated, 0 = no growth, -100 = all killed)
# Settings: 10 µM unless noted
The panel holds about 83,000 compounds, 20% with a hit somewhere; the sample as a whole holds those more often.
# output: bare number, implied unit %

Which growth value belongs to CS(=O)(=O)c1ccc(-c2[nH]c3ccc(F)cc3c2/C=N/O)cc1 ?
89.9

Here is the next compound: CN1C[C@@H](c2ccc(Cl)cc2)[C@]2(NC(=S)N(c3ccc(F)c(Cl)c3)C2=O)[C@@]12C(=O)NC1C=CC(Cl)=C[C@H]12 (stereo not given in full)
41.9

Record: C=C1c2c(C)nn(-c3ccc(N)cc3)c2N(C)C23CC1C1(C)c4c(C)nn(-c5ccc(N)cc5)c4N(C)C(C)(CC12)C3 (stereo not given)
100

Same question for COc1ccc(C(=O)/C=C/c2cc3c(c(OC)c2)OCC(=O)N3)cc1 please.
80

Then this compound: COc1ccc(C2CC(c3ccc4ccccc4c3)=NN2c2nc(O)c(C3=c4cc(Cl)ccc4=NC3=O)s2)cc1 (stereo not given)
-11.5

Can you check COc1cc(-c2ncn(/C=C\c3nnco3)n2)cc(C(F)(F)F)c1 next?
22.3

Param item: CCN(CC)CCOc1ccc(/C(=C(\C)c2ccc(F)c(OC)c2)c2ccc(Cl)cc2)cc1
29.7

Proceed to O=C1Nc2ccccc2/C1=N/N=C/c1c[nH]c2ccccc12
35.7

# repeat for CC(C)(C)N1CC(OC(N)=O)C1
110

And C[C@H]1[C@H]2C3=CC[C@@H]4[C@@]5(C)C/C(=C/c6ccncc6)C(=O)C(C)(C)[C@@H]5CC[C@@]4(C)[C@]3(C)CC[C@@]2(C(=O)N2CCN(C)CC2)CC[C@@H]1C ?
84

----------
# Tested on: OVCAR-5 ovarian
# Procedure Summary: NCI-60 one-dose screen, 48 h (100 = growth as untreated, 0 = no growth, -100 = all killed)
# Settings: 10 µM unless noted
This is part of a sample that, as a whole, favours compounds with a hit. Of some 83,000 tested, about 20% had one in any assay.
Would you kindly list growth for each of these compounds?
Just the number in %, nothing appended.

Requested read-out growth, target or system OVCAR-5 ovarian, entry c1ccc2[nH]c(SSc3nc4ncncc4[nH]3)nc2c1
44.6

What do you have for CCCCCCCCN(CCCCCCCC)C(=N)c1ccnc2ccccc12 ?
-57.2

Could you do the same for Cc1[nH]c(-c2nc3ccccc3[nH]2)c(C)c1C(=O)N1CCc2sccc2C1 , please?
83.5

Same question for O=C1Nc2ccc(Cl)cc2/C1=N/N=C/c1c[nH]c2ccccc12 please.
89.8

// next record CC(=O)NCC(=O)Nc1ccc(-c2nnc3ccccn23)nc1.CC(=O)NCC(=O)Nc1ccc(-c2nnc3ccccn23)nc1.[Pt+2]
114

Subsequent entry: OC(CBr)c1ccnc2ccccc12 (centres undefined)
106

Same for Cc1ccc2c(n1)C(=O)C(Oc1ccc(F)cc1)=CC2=O
111

O=C1C2=C(CCN(Cc3ccccc3)C2)N2CCN=C2N1Cc1ccc(C(F)(F)F)cc1 , same question.
56.9

Now the same for Cn1nnnc1-c1ccc(N)cc1
94.1

Another: N#Cc1c(Oc2ccc([N+](=O)[O-])cc2)nc2sc3cc(Cl)ccc3n2c1=N
120

Ok, now CCNCCNc1cc(-c2ccc(F)cc2)c(C#N)c2nc3ccccc3n12
89.9

Another compound to look at: Cl.Fc1c[c-]c(-c2ccccn2)c(F)c1.[Pt].c1ccc([PH+](C[PH+](c2ccccc2)c2ccccc2)c2ccccc2)cc1
-81.8

Try O=c1[nH]c(=O)n(C2CC(O)C(CO)O2)cc1CO (centres undefined) next.
29.7

Moving on to N=C(N)c1ccc(-c2ccc(-c3ccc(Cl)cn3)s2)cc1
52.2

COc1ccc(NC(=O)C(=O)c2c[nH]c3ccc(F)cc23)cc1 ?
106

And what about the compound O=[N+]([O-])c1ccc2[nH]cc(-c3c4ccsc4cc4[nH]c5ccc([N+](=O)[O-])cc5c34)c2c1 ?
10.9

Now consider CN1CCN(c2ccc(Nc3ncc(Cl)c(NC[C@@H]4CCCO4)n3)cc2)CC1 .
18.1

Next compound up: N#C/C(=C\c1ccc(Br)cc1)n1nnc2cc(Cl)c(Cl)cc21
46.2

What about Cc1cc(C(c2ccccc2)c2ccccc2)ccc1NS(=O)(=O)c1ccccc1 ?
114

Another compound: COc1ccc2cc(-c3ccc(C(=O)NN)c(C)n3)ccc2c1
91.6

And the next one, Clc1ccc2[nH]c3c(NCCCN4CCOCC4)ncnc3c2c1 ?
90.8

And for Cc1cnc(Nc2ccc(N3CCN(C)CC3)cc2)nc1Nc1ccc(Cl)c(NS(=O)(=O)C(C)(C)C)c1 ?
19.9

Queued: C=C1C(=O)O[C@H]2[C@H]1CC/C(C(=O)NCCCCCCCCNC(=O)/C1=C/CC[C@@]3(C)O[C@H]3[C@H]3OC(=O)C(=C)[C@@H]3CC1)=C\CC[C@@]1(C)O[C@@H]21
97.1

And CNC1(C#N)CCN(Cc2ccccc2)CC1 ?
100

Item: COc1cc(NC(=O)c2cccc(-c3cc(=O)c4c(OC)c(OC)c(OC)cc4o3)c2)cc(OC)c1OC
86

Try C[C@]12CCC(=O)C[C@H]1CC[C@@H]1[C@@H]2CC[C@@]2(C)[C@H]1CC[C@]2(O)C(=O)CO next.
92.3

What do we get for COc1ccccc1C(=O)NC(=S)Nc1ccc(-c2nc3ccccc3[nH]2)cc1 ?
90.5

Now the same for CSc1nc(N)c(CNC(C)c2ccccc2)c(=O)n1C (centres undefined)
91.7

Entry Cc1cc2c(F)c(Oc3ncnc(Nc4ccc(N5C[C@@H](C)N[C@@H](C)C5)cc4)c3C#N)cc(F)c2[nH]1 please
103

Further, for CCOC(=O)c1cnn2c(-c3ccc(Cl)cc3)nc(NCc3ccccc3)nc12 ?
100

Item: C[C@@H]1C(=O)N(C[C@H](Cc2ccccc2)NC(=O)OCc2ccccc2)[C@]1(Cc1ccccc1)C(=O)OC(C)(C)C
91.5

# iterate: C[C@@H](C[C@H](CCOCc1cccnc1)c1ccccc1)c1cc2ccccc2o1
87.8

Input Clc1ccc(-c2nc(NCCc3ccccc3)nc3c(NCCc4ccccc4)cnn23)cc1
91.2

Next up: COc1cc(/C=C2\C=C(c3ccccc3)N(CCc3ccccc3)C2=O)cc(OC)c1OC
105

Same thing, different compound: COc1ccc(/C=C(\C#N)n2nnc3ccccc32)cc1
-13.4

Would you kindly repeat that for Cn1c(NCCc2ccc(O)c(O)c2)nc2c1c(=O)n(Cc1ccc(Cl)cc1)c(=O)n2C ?
94.9

Same read-out for COc1cc2c(cc1OC)-c1ccc3cc4c(cc3c1N(CCCN(C)C)C2)OCO4 ?
60

# iterate: CN(C)c1ccc(C#Cc2c(F)cccc2Cl)cc1
99.2

Another compound: C=C1C(=O)O[C@H]2[C@H]1CC/C(Cn1cc(CNCCc3c[nH]c4ccc(Cl)cc34)nn1)=C\CC[C@@]1(C)O[C@@H]21
83.5
